Quick list: viability, T/C per entry.
tested on: 616215-338-R-J1-PDC complex spheroids, viability % test/control; experiment: Anticancer human tumor 616215-338-R-J1-PDC patient-derived colon adenocarcinoma cell line growth inhibition [CLK]; settings: second compound 0.1 µM; first compound 0.1 µM; stronger effect = lower value

Compound	Measurement unit	viability, T/C
COc1cccc2c1C(=O)c1c(O)c3c(c(O)c1C2=O)CC(O)(C(=O)CO)CC3OC1CC(N)C(O)C(C)O1 (stereo unspecified) + CN1CCN(c2cc(C(=O)Nc3cc4cc(-c5cnn(C)c5)ccc4cn3)ccn2)CC1	%	44.8
COc1cccc2c1C(=O)c1c(O)c3c(c(O)c1C2=O)CC(O)(C(=O)CO)CC3OC1CC(N)C(O)C(C)O1 (stereo unspecified) + CNC(=O)c1ccc(Nc2nc(OC3CCCC3)c3c(-c4ccc5nc(C)oc5c4)c[nH]c3n2)c(OC)c1	%	57.7
COC1C=CCC(C)C(C)S(=O)(=O)NC(=O)c2ccc3c(c2)N(CC2CCC21)CC1(CCCc2cc(Cl)ccc21)CO3 (stereo unspecified) + CNC(=O)c1ccc(Nc2nc(OC3CCCC3)c3c(-c4ccc5nc(C)oc5c4)c[nH]c3n2)c(OC)c1	%	57
CC(CO)NC(=O)c1cc(-c2ccc(Cl)cc2)nn(-c2cnn(C)c2)c1=O (stereo unspecified) + CNC(=O)c1ccc(Nc2nc(OC3CCCC3)c3c(-c4ccc5nc(C)oc5c4)c[nH]c3n2)c(OC)c1	%	57.9
O=C(c1cc(Cc2n[nH]c(=O)c3ccccc23)ccc1F)N1CCN(C(=O)C2CC2)CC1 + CNC(=O)c1ccc(Nc2nc(OC3CCCC3)c3c(-c4ccc5nc(C)oc5c4)c[nH]c3n2)c(OC)c1	%	63.5
CC1COCCN1c1cc(C2(S(C)(=N)=O)CC2)nc(-c2ccnc3[nH]ccc23)n1 (stereo unspecified) + CN1CCN(c2cc(C(=O)Nc3cc4cc(-c5cnn(C)c5)ccc4cn3)ccn2)CC1	%	106
Nc1ccccc1NC(=O)c1ccc(CNC(=O)OCc2cccnc2)cc1 + CNC(=O)c1ccc(Nc2nc(OC3CCCC3)c3c(-c4ccc5nc(C)oc5c4)c[nH]c3n2)c(OC)c1	%	48.9
Nc1ccn(C2OC(CO)C(O)C2(F)F)c(=O)n1 (stereo unspecified) + CN1CCN(c2cc(C(=O)Nc3cc4cc(-c5cnn(C)c5)ccc4cn3)ccn2)CC1	%	14.5
C=C(F)C(=O)N1CCN(c2nc(OCC3CCCN3C)nc3c2CCN(c2cccc4cccc(Cl)c24)C3)CC1CC#N (stereo unspecified) + CN1CCN(c2cc(C(=O)Nc3cc4cc(-c5cnn(C)c5)ccc4cn3)ccn2)CC1	%	120
CC(CO)NC(=O)c1cc(-c2ccc(Cl)cc2)nn(-c2cnn(C)c2)c1=O (stereo unspecified) + CN1CCN(c2cc(C(=O)Nc3cc4cc(-c5cnn(C)c5)ccc4cn3)ccn2)CC1	%	108
C#Cc1c(F)ccc2cc(O)cc(-c3ncc4c(N5CC6CCC(C5)N6)nc(OCC56CCCN5CC(F)C6)nc4c3F)c12 (stereo unspecified) + CN1CCN(c2cc(C(=O)Nc3cc4cc(-c5cnn(C)c5)ccc4cn3)ccn2)CC1	%	103

---

Quick list: viability, T/C per entry.
system: 616215-338-R-J1-PDC complex spheroids, viability % test/control; test: Anticancer human tumor 616215-338-R-J1-PDC cell line growth inhibition [CLK]; conditions: second compound 0.316 µM; first compound 3.16 µM; stronger effect = lower value;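 also: spheroids exposed to agents for 7 days; 100% = DMSO vehicle wells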
Measured quantity: viability, T/C

Compound	Experimental system	Measured quantity	Measurement
CC(=O)O[C@H]1C(=O)[C@@]2(C)[C@H]([C@H](OC(=O)c3ccccc3)[C@]3(O)C[C@H](OC(=O)[C@H](O)[C@@H](NC(=O)c4ccccc4)c4ccccc4)C(C)=C1C3(C)C)[C@]1(OC(C)=O)CO[C@@H]1C[C@@H]2O + CNC(=O)c1ccc(Nc2nc(OC3CCCC3)c3c(-c4ccc5nc(C)oc5c4)c[nH]c3n2)c(OC)c1	616215-338-R-J1-PDC complex spheroids, viability % test/control	viability, T/C	58.5%
C=CC(=O)N1CCN(c2nc(=O)n(-c3c(C)ccnc3C(C)C)c3nc(-c4c(O)cccc4F)c(F)cc23)C(C)C1 (configuration not stated) + CN1CCN(c2cc(C(=O)Nc3cc4cc(-c5cnn(C)c5)ccc4cn3)ccn2)CC1	616215-338-R-J1-PDC complex spheroids, viability % test/control	viability, T/C	49.9%
